viability at 10 µM for assorted compounds
# assay.comment: Cytotoxicity against human HeLa229 cells assessed as cell viability at 10 uM after 44 to 48 hrs by resazurin-based fluorometry relative to control
# Parameters: species or system HeLa 229
# measurement.parameters: read-out: Activity
# value in %; strip the unit string

compound | viability at 10 µM / %
O=C(NC1CSc2c(C3CC3)c(Cc3cccc4ccccc34)cc(=O)n21)c1ccccc1 (stereo not given) | 114
O=c1cc(Cc2cccc3ccccc23)c(C2CC2)c2n1C(n1cc(-c3ccccc3)nn1)CS2 (stereo not given) | 96
O=c1cc(Cc2cccc3ccccc23)c(C2CC2)c2n1C(c1nc(-c3ccccc3)c[nH]1)CS2 (stereo not given) | 106
Nc1c(Cc2cccc3ccccc23)c(C2CC2)c2n(c1=O)C(c1nc(-c3ccccc3)n[nH]1)CS2 (stereo not given) | 100

Recorded viability at 10 µM (compound CC(C)(C)OC(=O)NC1CSc2c(C3CC3)c(Cc3cccc4ccccc34)cc(=O)n21 (stereo not given) ): 105

Recorded viability at 10 µM (compound Cc1cccc(-c2n[nH]c(C3CSc4c(C5CC5)c(Cc5cccc6ccccc56)cc(=O)n43)n2)c1 (stereo not given) ): 95

Recorded viability at 10 µM (compound O=c1cc(Cc2cccc3ccccc23)c(C2CC2)c2n1C(c1ncc(-c3ccccc3)s1)CS2 (stereo not given) ): 97

Recorded viability at 10 µM (compound O=C(NS(=O)(=O)c1ccccc1)C1CSc2c(C3CC3)c(Cc3cccc4ccccc34)cc(=O)n21 (stereo not given) ): 105

Recorded viability at 10 µM (compound O=c1cc(Cc2cccc3ccccc23)c(C2CC2)c2n1C(c1nc(-c3ccccc3)co1)CS2 (stereo not given) ): 83

Recorded viability at 10 µM (compound O=c1cc(Cc2cccc3ccccc23)c(C2CC2)c2n1C(c1nc(-c3ccccc3)no1)CS2 (stereo not given) ): 99

Recorded viability at 10 µM (compound O=C(CNC(=O)C1CSc2c(C3CC3)c(Cc3cccc4ccccc34)cc(=O)n21)c1ccccc1 (stereo not given) ): 107

Recorded viability at 10 µM (compound O=c1cc(Cc2cccc3ccccc23)c(C2CC2)c2n1C(c1nnc(-c3ccccc3)o1)CS2 (stereo not given) ): 103

Recorded viability at 10 µM (compound O=c1cc(Cc2cccc3ccccc23)c(C2CC2)c2n1C(NS(=O)(=O)c1ccccc1)CS2 (stereo not given) ): 114

Recorded viability at 10 µM (compound Nc1c(Cc2cccc3ccccc23)c(C2CC2)c2n(c1=O)C(n1cc(-c3ccccc3)nn1)CS2 (stereo not given) ): 105

Recorded viability at 10 µM (compound O=c1cc(Cc2cccc3ccccc23)c(C2CC2)c2n1C(c1nc(-c3ccccc3)n[nH]1)CS2 (stereo not given) ): 98
